- TEST_SYSTEM: full length MPS1 (Homo sapiens (Human), UniProt P33981)
- Sequence (P33981 whole entry): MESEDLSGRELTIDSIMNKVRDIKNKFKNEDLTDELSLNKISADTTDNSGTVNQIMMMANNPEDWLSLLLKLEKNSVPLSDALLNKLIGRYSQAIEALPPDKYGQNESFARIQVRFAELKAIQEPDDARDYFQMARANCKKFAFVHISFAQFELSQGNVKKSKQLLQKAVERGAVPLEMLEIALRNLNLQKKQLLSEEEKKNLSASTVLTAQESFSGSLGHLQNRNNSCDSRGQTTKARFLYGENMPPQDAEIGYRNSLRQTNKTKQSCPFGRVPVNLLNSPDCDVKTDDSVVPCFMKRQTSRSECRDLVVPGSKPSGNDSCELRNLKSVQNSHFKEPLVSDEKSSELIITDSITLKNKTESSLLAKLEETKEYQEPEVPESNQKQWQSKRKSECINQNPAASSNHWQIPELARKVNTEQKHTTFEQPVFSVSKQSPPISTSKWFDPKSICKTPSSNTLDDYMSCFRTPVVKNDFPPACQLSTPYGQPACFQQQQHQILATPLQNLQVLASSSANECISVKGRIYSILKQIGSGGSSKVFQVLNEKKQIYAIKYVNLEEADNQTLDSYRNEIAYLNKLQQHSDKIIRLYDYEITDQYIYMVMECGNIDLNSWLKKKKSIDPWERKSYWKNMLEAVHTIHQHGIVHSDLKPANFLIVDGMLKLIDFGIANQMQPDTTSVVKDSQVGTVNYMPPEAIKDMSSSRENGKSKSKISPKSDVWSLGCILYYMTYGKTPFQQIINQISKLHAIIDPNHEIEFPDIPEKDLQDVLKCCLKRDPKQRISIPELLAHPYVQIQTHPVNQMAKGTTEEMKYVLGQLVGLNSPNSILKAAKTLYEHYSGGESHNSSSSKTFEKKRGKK
PARAMETER: log10(IC50) (log10 of the value in µM)
Hello, just confirming the data are log10 of IC50 with units of µM.

Answered cases to consult:
Clc1ccc(Nc2ncc3ccnc(N4CCC5(COC5)C4)c3n2)c(Cl)c1 [Example 207] = -1.03
COc1cc(-c2cnc(C)n2C)ccc1Nc1ncc2ccnc(-c3cnn(C)c3)c2n1 [Example 40] = -2.40
COc1cc(-c2nncn2C)ccc1Nc1ncc2cc(C)nc(NCC(C)(C)C)c2n1 [Example 179] = -2.70
COc1cc(-c2cnn(C)c2)ccc1Nc1ncc2cc(C)nc(NCC(C)(C)C)c2n1 [Example 51] = -1.54
COc1cc(N2CCN(S(C)(=O)=O)CC2)ccc1Nc1ncc2cc(C)nc(NCC(C)(C)C)c2n1 [Example 183] = -1.80
COc1cc(-c2cnn(CCN3CCN(C)CC3)c2)ccc1Nc1ncc2ccnc(NC3CCCCC3)c2n1 [Example 41] = -2.52
COc1cc(-c2cnn(C)c2)ccc1Nc1cc2c(-c3cnn(C)c3)nccc2cn1 [Example 103] = -1.92

Okay, next one:
full length MPS1 (Homo sapiens (Human), UniProt P33981) data for COCCn1cc(-c2cccc3cnc(Nc4ccc(C(=O)N5CC(OC)C5)cc4OC)cc23)cn1 [Example 2] ; its log10(IC50): -1.85
